Molecular target: PKC-ε (Homo sapiens, UniProt Q02156)
Sequence (Q02156 1-737): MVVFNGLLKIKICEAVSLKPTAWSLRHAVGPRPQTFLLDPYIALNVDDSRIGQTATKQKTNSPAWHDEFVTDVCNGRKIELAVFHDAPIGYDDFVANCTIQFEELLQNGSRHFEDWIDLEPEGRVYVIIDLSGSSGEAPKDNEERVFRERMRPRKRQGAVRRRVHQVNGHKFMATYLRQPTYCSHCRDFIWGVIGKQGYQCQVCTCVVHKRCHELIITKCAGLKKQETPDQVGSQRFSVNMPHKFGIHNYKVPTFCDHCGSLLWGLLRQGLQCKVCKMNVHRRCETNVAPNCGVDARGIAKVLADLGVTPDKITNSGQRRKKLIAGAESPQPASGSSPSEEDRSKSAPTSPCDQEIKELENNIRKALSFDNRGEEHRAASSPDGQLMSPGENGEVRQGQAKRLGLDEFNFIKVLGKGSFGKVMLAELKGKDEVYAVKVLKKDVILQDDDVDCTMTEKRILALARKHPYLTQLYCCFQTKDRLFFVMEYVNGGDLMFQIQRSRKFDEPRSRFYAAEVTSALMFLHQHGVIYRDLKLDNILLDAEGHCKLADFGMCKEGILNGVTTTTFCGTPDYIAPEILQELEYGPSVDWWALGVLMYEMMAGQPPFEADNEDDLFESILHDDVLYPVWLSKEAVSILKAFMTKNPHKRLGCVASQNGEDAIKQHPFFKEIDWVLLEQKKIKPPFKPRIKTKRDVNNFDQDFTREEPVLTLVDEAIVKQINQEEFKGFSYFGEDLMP
Assay: ELISA-based competitive binding assay with purified PKC isoform
Parameters: key: —: no detectable affinity; Low to very low affinity at 10X or 20X or both PRE concentrations in at least one cell line in the cell extract assay; Low affinity in purified isoform assay.; Moderate affinity at 10X or 20X or both PRE concentrations in at least one cell line in the cell extract assay.; High affinity at 10X or 20X or both PRE concentrations in at least one cell line in the cell extract assay; High affinity in purified isoform assay
Details: Purified isoform
[ ]: non-standard residue; d: D form.
measuredProperty: Affinity for PKC isoform ε

Use these answered entries as a reference point.
substance	Affinity for PKC isoform ε
Ac-RDAQNLIGISI-NH2 [PRE 11]	L
RRKKGGKDFVVKR [PRE 1]	—
Ac-ISIGILNQADK-NH2 [PRE 10]	—
Ac-isigilqnadk-NH2 (Ac-[dI][dS][dI]G[dI][dL][dQ][dN][dA][dD][dK]-NH2; SMILES CC[C@@H](C)[C@@H](NC(C)=O)C(=O)N[C@H](CO)C(=O)N[C@@H](C(=O)NCC(=O)N[C@@H](C(=O)N[C@H](CC(C)C)C(=O)N[C@H](CCC(N)=O)C(=O)N[C@H](CC(N)=O)C(=O)N[C@H](C)C(=O)N[C@H](CC(=O)O)C(=O)N[C@H](CCCCN)C(N)=O)[C@H](C)CC)[C@H](C)CC) [PRE 9]	L
Ac-KDAQNLI-NH2 [PRE 12]	—

Reported Affinity for PKC isoform ε for PKC-ε (Homo sapiens, UniProt Q02156), given Ac-RDAQNLI-NH2 [PRE 13] ?
—

Reported Affinity for PKC isoform ε for PKC-ε (Homo sapiens, UniProt Q02156), given Ac-KDANQLIGISI-NH2 [PRE 6] ?
—

Reported Affinity for PKC isoform ε for PKC-ε (Homo sapiens, UniProt Q02156), given Ac-ISIGILQNADK-NH2 (not fully specified; printed as Ac-ISIGILQNADK-NH2) [PRE 7] ?
L

Reported Affinity for PKC isoform ε for PKC-ε (Homo sapiens, UniProt Q02156), given ILEDKGGDAQNLIGISI [PRE 8] ?
—
